These entries and their values trace back to patent US20240182536A1.

Molecular target: T1, human IL-18 binding protein (human, UniProt O95998 31-194); further: unit not given here
T1 sequence (looked up): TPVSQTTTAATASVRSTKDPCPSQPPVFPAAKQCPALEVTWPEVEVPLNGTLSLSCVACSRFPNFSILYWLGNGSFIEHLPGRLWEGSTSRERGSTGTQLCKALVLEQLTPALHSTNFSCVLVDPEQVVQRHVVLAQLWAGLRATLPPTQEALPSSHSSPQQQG
Assay: cell-based or functional assay
Please provide measured HEK-Blue activity, +100 nM BP, DF-10000 for the entries that follow.
Answer with a number only.

Reported HEK-Blue activity, +100 nM BP, DF-10000 for yeast display IL-18 variant K53S, S55F, R104K, H109Y (ligand) YFGKLESKLSVIRNLNDQVLFIDQGNRPLFEDMTDSDMRDNAPRTIFIISMYSDFQPRGMAVTISVKSEKISTLSSENKIISFKEMNPPDNIKDTKSDIIFFQKSVPGYDNKMQFESSSYEGYFLASEKERDLFKLILKKEDELGDRSIMFTVQNED was 0.14

Reported HEK-Blue activity, +100 nM BP, DF-10000 for yeast display IL-18 variant K53T, S55M, R58K (ligand) YFGKLESKLSVIRNLNDQVLFIDQGNRPLFEDMTDSDMRDNAPRTIFIISMYTDMQPKGMAVTISVKSEKISTLSSENKIISFKEMNPPDNIKDTKSDIIFFQRSVPGHDNKMQFESSSYEGYFLASEKERDLFKLILKKEDELGDRSIMFTVQNED was 0.72

Reported HEK-Blue activity, +100 nM BP, DF-10000 for yeast display IL-18 variant K53G, S55I (ligand) YFGKLESKLSVIRNLNDQVLFIDQGNRPLFEDMTDSDMRDNAPRTIFIISMYGDIQPRGMAVTISVKSEKISTLSSENKIISFKEMNPPDNIKDTKSDIIFFQRSVPGHDNKMQFESSSYEGYFLASEKERDLFKLILKKEDELGDRSIMFTVQNED was 0.76

Reported HEK-Blue activity, +100 nM BP, DF-10000 for yeast display IL-18 variant T34I, S36T, D40A, N41M, K53T, S55Y (ligand) YFGKLESKLSVIRNLNDQVLFIDQGNRPLFEDMIDTDMRAMAPRTIFIISMYTDYQPRGMAVTISVKSEKISTLSSENKIISFKEMNPPDNIKDTKSDIIFFQRSVPGHDNKMQFESSSYEGYFLASEKERDLFKLILKKEDELGDRSIMFTVQNED was 0.37

Reported HEK-Blue activity, +100 nM BP, DF-10000 for yeast display IL-18 variant E6D, S36F, K53T, S55M, R58K (ligand) YFGKLDSKLSVIRNLNDQVLFIDQGNRPLFEDMTDFDMRDNAPRTIFIISMYTDMQPKGMAVTISVKSEKISTLSSENKIISFKEMNPPDNIKDTKSDIIFFQRSVPGHDNKMQFESSSYEGYFLASEKERDLFKLILKKEDELGDRSIMFTVQNED was 0.5

Reported HEK-Blue activity, +100 nM BP, DF-10000 for yeast display IL-18 variant K53H, S55V (ligand) YFGKLESKLSVIRNLNDQVLFIDQGNRPLFEDMTDSDMRDNAPRTIFIISMYHDVQPRGMAVTISVKSEKISTLSSENKIISFKEMNPPDNIKDTKSDIIFFQRSVPGHDNKMQFESSSYEGYFLASEKERDLFKLILKKEDELGDRSIMFTVQNED was 1.05

Reported HEK-Blue activity, +100 nM BP, DF-10000 for yeast display IL-18 variant K53S, S55G (ligand) YFGKLESKLSVIRNLNDQVLFIDQGNRPLFEDMTDSDMRDNAPRTIFIISMYSDGQPRGMAVTISVKSEKISTLSSENKIISFKEMNPPDNIKDTKSDIIFFQRSVPGHDNKMQFESSSYEGYFLASEKERDLFKLILKKEDELGDRSIMFTVQNED was 1.83

Reported HEK-Blue activity, +100 nM BP, DF-10000 for yeast display IL-18 variant K53T, S55F (ligand) YFGKLESKLSVIRNLNDQVLFIDQGNRPLFEDMTDSDMRDNAPRTIFIISMYTDFQPRGMAVTISVKSEKISTLSSENKIISFKEMNPPDNIKDTKSDIIFFQRSVPGHDNKMQFESSSYEGYFLASEKERDLFKLILKKEDELGDRSIMFTVQNED was 0.6
